Target: human LPA1 receptor (Homo sapiens, UniProt Q92633)
Construct: TEV protease site; Gal4-VP16 transcription factor
Sequence (Q92633 whole entry, the tested form may be a part): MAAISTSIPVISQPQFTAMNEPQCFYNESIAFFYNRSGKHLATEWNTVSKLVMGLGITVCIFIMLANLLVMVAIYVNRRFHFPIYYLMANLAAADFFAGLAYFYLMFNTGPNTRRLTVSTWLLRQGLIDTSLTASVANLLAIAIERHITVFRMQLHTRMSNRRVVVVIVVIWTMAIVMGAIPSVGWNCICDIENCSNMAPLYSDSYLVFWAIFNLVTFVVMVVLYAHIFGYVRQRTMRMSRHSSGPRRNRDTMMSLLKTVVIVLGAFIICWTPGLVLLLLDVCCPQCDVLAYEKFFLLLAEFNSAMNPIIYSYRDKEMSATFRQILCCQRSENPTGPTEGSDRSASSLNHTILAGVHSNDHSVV
Experiment: Beta-arrestin recruitment assay (Tango EDG2-bla U2OS cells) to determine IC50 values for human LPAR1
Conditions: antagonist mode, LPA 18:1 500 nM final; geomean where multiple values
pIC50: −log10 of the molar value.
ATTRIBUTE_MEASURED: pIC50

Solved cases (6 shown):
>>> df
                                   compound  attribute_measured  data_value
0  CCOc1cc(Cl)ncc1NC(=O)C1(c2ccccc2C(C)C)CN(CCC(C)(C)C(=O)O)C1 [Example 2-4]               pIC50        7.70
1  COc1cc(F)ncc1NC(=O)C1(c2ccccc2C(C)C)CN(S(N)(=O)=O)C1 [Example 5-1]               pIC50        7.72
2  CCOc1cc(Cl)ncc1NC(=O)C1(c2ccccc2C(C)C)CN(S(N)(=O)=O)C1 [Example 5-3]               pIC50        8.52
3  Cc1ccc(NC(=O)C2(c3ccccc3C(C)C)CN(S(N)(=O)=O)C2)c(OC(C)C)n1 [Example 5-10]               pIC50        7.85
4  COc1nc(C)ccc1NC(=O)C1(c2ccccc2C(C)C)CN(S(N)(=O)=O)C1 [Example 5-8]               pIC50        7.29
5  COc1cc(Cl)ncc1NC(=O)C1(c2ccccc2C(C)C)CN(C(=O)CC(C)(C)C(=O)O)C1 [Example 4-2]               pIC50        7.10

a. Cc1ccc(NC(=O)C2(c3ccccc3C(C)C)CN(S(N)(=O)=O)C2)c(OC(F)F)n1 [Example 5-7]
b. Cc1ccc(NC(=O)C2(c3ccccc3C(C)C)CN(CCCC(C)(C)C(=O)O)C2)c(OC(F)F)n1 [Example 3-1]
Enquiry: Would you let me know which has the greater pIC50 value, a or b ? State the label of the item chosen.
Return: a
(a: 8.70, b: 7.89)
